experiment: qHTS assay for small molecule activators of the human pregnane X receptor (PXR) signaling pathway (AID 720659); conditions: DPX-2 HepG2 CYP3A4-luciferase, 24 h; series mostly up to 92.3 µM; further: 0% is about no effect
Activity calls are given as the source filed them. How the calls were made is not given here.
Metric: outcome

O=C(OCC1CCC2OC2C1)C1CCC2OC2C1 (stereo not drawn)    inactive
N[C@@H]1[C@@H](O)[C@H](O)[C@@H](CO)O[C@H]1O    inactive
Cl[Si](Cl)(Cl)c1ccccc1    inactive

###

assay: qHTS for small molecule inhibitors of Yes1 kinase: Counter Assay (AID 686950); settings: series mostly up to 76.9 µM;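 further: no kinase present so only ADP-Glo detection of a fixed ADP amount is tested; luminescence from ADP-Glo reporting ADP in a fixed ATP and ADP mixture; 0% = DMSO wells with ATP plus ADP and -100% = ATP-only wells without ADP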
The source made the active and inactive calls. The call rests on the fitted dose curve; in most records, active means well fitted curve in the direction sought with a large enough effect; inactive means no such curve, though single readings can be large or run the other way.
Metric: outcome

COc1cccc(-n2ncc3c(NN=Cc4ccncc4)ncnc32)c1    inactive
CS(=O)(=O)Nc1ccc(N=Cc2c(O)[nH]c3ccccc23)cc1    inactive
O=C(Nc1n[nH]c2cc(-c3cc(F)ccc3F)ccc12)C1CC1    inactive
Fc1ccc(-c2nn3ccccc3c2-c2ccncc2)cc1    inactive
COc1ccc(-c2nn3ncccc3c2-c2ccnc(Nc3cccc(C(F)(F)F)c3)n2)cc1    inactive
COc1cc(C)c(NC(=O)CN(C)C)cc1Nc1nc(Nc2cccc(F)c2C(N)=O)c2cc[nH]c2n1    inactive
CC(C)COC(=O)c1ccc2[nH]c(O)c(C=Nc3ccc(S(N)(=O)=O)cc3)c2c1    inactive
Fc1ccc(-c2ncn(C3CCNCC3)c2-c2ccnc(Oc3ccc(Cl)cc3)n2)cc1    inactive
Cc1ccc2c(-c3ccnc(Nc4ccccc4)n3)c(-c3ccc(F)cc3)nn2n1    inactive
COc1cc2ncnc(Nc3ccc(C)c(O)c3)c2cc1OC    inactive
CCS(=O)(=O)c1ccc(OC)c(Nc2ncc(-c3ccccc3Cl)o2)c1    inactive
COC(=O)c1sc(-n2cnc3cc(OC)c(OC)cc32)cc1OCc1ccccc1C(F)(F)F    inactive
CN(C)CCNC(=O)Nc1ccc(N(C)c2ccnc(Nc3ccc(CS(C)(=O)=O)cc3)n2)cc1    inactive
NC(=O)c1cc(-c2ccncc2)cc(-c2ccccc2)c1N    inactive
Clc1ccc(CNc2nccc(-c3cnn4ncccc34)n2)cc1    inactive
Fc1ccc(-c2ncn(C3CCNCC3)c2-c2ccnc(Oc3ccc4c(c3)OCO4)n2)cc1    inactive
CCc1cccc(NC(=O)Nc2ccc(Oc3ccc4nc(NC(=O)OC)[nH]c4c3)cc2)c1    inactive
COc1cc(C=NNc2ncnc3c2cnn3C(C)C)ccc1O    inactive
COC(=O)Nc1nc2ccc(Oc3ccc(NC(=O)Nc4cccc(Br)c4)cc3)cc2[nH]1    inactive
COc1cc2ncn(-c3cc(OC(C)c4ccccc4Cl)c(C(N)=O)s3)c2cc1OC (stereo unspecified)    inactive
Nc1ncc(-c2cccc(S(N)(=O)=O)c2)c2scc(-c3ccc(F)c(Cl)c3)c12    inactive

###

target: Peroxisome proliferator-activated receptor alpha (Homo sapiens); test: qHTS assay for small molecule agonists of the peroxisome proliferator-activated receptor alpha (PPARalpha) signaling pathway (AID 651778); conditions: PathHunter PPARalpha complementation, chemiluminescence, 6 h; stronger effect = higher value; further: % of control where 0% means no effect
Items are presented alongside their recorded max response.
Metric: max response (%)

CS(=O)(=O)c1ccc(Cl)cc1    -0.188
C=C(C)C(=O)OCC(CC)(COC(=O)C(=C)C)COC(=O)C(=C)C    -3.37
CC(C)(C)c1ccc(O)c(C(C)(C)C)c1    8.37
CC(=O)CC(=O)Nc1ccccc1C    -0.992
CNc1nc(=O)n(C2CCCCC2)c(=O)n1C    -0.955
CCc1c(C(=O)O)c(=O)cnn1-c1ccc(Cl)cc1    3.7
CCCC[O][Al]([O]CCCC)[O]CCCC    -1.21

###

target: RecQ-like DNA helicase BLM (Homo sapiens); test: qHTS for Inhibitors of WRN Helicase: BLM Helicase Counterscreen for WRN Inhibitors (AID 720503); conditions: Recombinant BLM helicase DNA unwinding, red fluorescence; series mostly up to 57.1 µM; further: nearly all actives have a fitted effect of over 60% in size
The other results are listed elsewhere or left out. Inconclusive results are not listed. The source made the active and inactive calls. Calls follow the shape of the dose curve; as a rule, active = well fitted inhibition curve with a large enough effect; inconclusive = small, poorly fitted or top-dose-only effect; inactive = no such curve, though single readings can be large or run the other way.
Classes used: TRUE (active), FALSE (inactive)

N#C/C(=C\C1=C(N2CCOCC2)C(=C\c2ccccc2)/CC1)C(=O)Nc1ccccc1F    TRUE
CC(=O)N(C1=C(Cl)C(=O)c2ccccc2C1=O)c1ccc(C(=O)O)cc1    FALSE
COC(=O)/C=C\C(=O)Nc1cccc([N+](=O)[O-])c1    FALSE
Cc1ccc(-c2nc(SCc3ccc(Br)cc3)n3[nH]c(=O)cc3n2)cc1    TRUE
CN(C)c1nc(Nc2ccc(Cl)c(Cl)c2)nc(N(C)C)n1    FALSE
CCN(CC)CCOc1ccc2c(c1)C(=NNC(=O)c1ccccn1)c1cc(OCCN(CC)CC)ccc1-2    FALSE
Cc1c(CC(=O)N2CCN(C(=O)C3COc4ccccc4O3)CC2)c(=O)oc2c(O)c(O)ccc12 (centres undefined)    TRUE
COc1cccc2c1C(=O)c1c(O)c3c(c(O)c1C2=O)CC(O)(C(C)=NNC(=O)c1ccc(Cl)c(Cl)c1)CC3OC1CC(N)C(O)C(C)O1 (centres undefined)    TRUE
COc1ccc(Cl)cc1NC(=O)CCS(=O)(=O)c1ccc(Br)cc1    TRUE

###

experiment: qHTS assay for small molecule agonists of retinoid X receptor alpha signaling (AID 588544); conditions: HEK293T RXRa-UAS-bla, beta-lactamase reporter, 18 h; 530 nm emission
Records with an inconclusive call do not appear.
Collected max response values appear next to each entry.
Metric: max response (%)

CCCCOC(=O)c1ccccc1    -7.9
CCCCCCCCCCCCCCCCCC#N    -14.7
CNc1nc(=O)n(C2CCCCC2)c(=O)n1C    -10.1
Cl[Si](Cl)(Cl)c1ccccc1    -15.8
O=C1CCCC/C=C/CCCCCCCCCO1    -14.2
CC1(C)CC(N)CC(C)(CN)C1 (centres undefined)    -8.73
CCOC(=O)COc1cc(-n2ncc(C(F)(F)F)c(C)c2=O)c(F)cc1Cl    9.89
COC(=O)c1ccccc1C(=O)O    -12.1
C[Si](Cl)(Cl)[Si](C)(Cl)Cl    -10.2

###

tested on: CP238; test: qHTS profiling for inhibitors of Plasmodium falciparum proliferation (AID 504749);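 further: 0% = DMSO vehicle and full inhibition = artemisinin control; nearly all actives have a fitted effect of over 60% in size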; conditions: P. falciparum in erythrocytes, SYBR Green DNA, 72 h; series mostly up to 28.7 µM
Inconclusive results are not listed. Activity calls are given as the source filed them. Calls follow the shape of the dose curve; as a rule, active = well fitted inhibition curve with a large enough effect; inconclusive = small, poorly fitted or top-dose-only effect; inactive = flat fitted curve, though single readings scatter.
Metric: outcome

CCOC(=O)C(CS)NCCN[C@@H](CS)C(=O)OCC (stereo partly specified)    inactive
CNCC(=O)NC(CCCN=C(N)N)C(=O)NC(C(=O)NC(Cc1ccc(O)cc1)C(=O)NC(C(=O)NC(Cc1cnc[nH]1)C(=O)N1CCCC1C(=O)NC(C)C(=O)O)C(C)C)C(C)C (stereo unspecified)    inactive
COc1ccc(-c2nc3ccc(C4=C(C)CC(=O)NN4)cc3[nH]2)cc1    inactive
O=C(O)c1ccccc1-c1c2cc(Br)c(=O)c(Br)c-2oc2c(Br)c(O)c(Br)cc12    inactive
CCC(C)C1NC(=O)C(Cc2ccc(O)cc2)NC(=O)C(N)CSSCC(C(=O)N2CCCC2C(=O)NC(CC(C)C)C(=O)NCC(N)=O)NC(=O)C(CC(N)=O)NC(=O)C(CCC(N)=O)NC1=O (stereo unspecified)    inactive
CC(C)CC(NC(=O)C(COC(C)(C)C)NC(=O)C(Cc1ccc(O)cc1)NC(=O)C(CO)NC(=O)C(Cc1c[nH]c2ccccc12)NC(=O)C(Cc1cnc[nH]1)NC(=O)C1CCC(=O)N1)C(=O)NC(CCCN=C(N)N)C(=O)N1CCCC1C(=O)NNC(N)=O (stereo unspecified)    inactive

###

assay: qHTS assay for small molecule activators of the p53 signaling pathway (AID 651743); settings: HCT-116 p53RE-bla, beta-lactamase FRET ratio, 16 h; stronger effect = higher value; further: % of control where 0% means no effect
Results filed as inconclusive are left out.
Recorded activation, one value per entry.
Metric: activation (%)

OCCC(F)(F)C(F)(F)C(F)(F)C(F)(F)C(F)(F)C(F)(F)C(F)(F)C(F)(F)F    2.93
CCOC(=O)c1ccccc1C    2.88
CN(C)CCOCCN(C)C    -2.29
C[C@]12CCC(=O)C=C1CC[C@@H]1[C@@H]2[C@@H](O)C[C@]2(C=O)[C@@H](C(=O)CO)CC[C@@H]12    -0.611
CC(C)C(=O)OC(=O)C(C)C    -7.19
CCCCCCCCC(=O)O    4.29
O=C(O)CCCCCCC(=O)O    -5.91
CCC(=O)OCCc1ccccc1    -3.48
O=[N+]([O-])c1ccc2c(c1)Cc1ccccc1-2    4.31
CCc1cccc(C)c1N(C(=O)CS(=O)(=O)O)[C@@H](C)COC    3.16
CC(C)(C)c1cccc(C(C)(C)C)c1O    -0.526
CCC(O)OCCCOC (stereo not given)    -2.25
CC(C)CCCCCCCCCCCCCCC(=O)O    1.15
CCCCCCCCCCCC[N+](C)(C)[O-]    1.24
CCOCCOCCOC(C)=O    1.91

Reference source: PubChem BioAssay (NCATS)
